- Study System: LRRK2 WT (Homo sapiens)
- Construct: purchased Life Technologies PR8604B
- Sequence (Q5S007 whole entry): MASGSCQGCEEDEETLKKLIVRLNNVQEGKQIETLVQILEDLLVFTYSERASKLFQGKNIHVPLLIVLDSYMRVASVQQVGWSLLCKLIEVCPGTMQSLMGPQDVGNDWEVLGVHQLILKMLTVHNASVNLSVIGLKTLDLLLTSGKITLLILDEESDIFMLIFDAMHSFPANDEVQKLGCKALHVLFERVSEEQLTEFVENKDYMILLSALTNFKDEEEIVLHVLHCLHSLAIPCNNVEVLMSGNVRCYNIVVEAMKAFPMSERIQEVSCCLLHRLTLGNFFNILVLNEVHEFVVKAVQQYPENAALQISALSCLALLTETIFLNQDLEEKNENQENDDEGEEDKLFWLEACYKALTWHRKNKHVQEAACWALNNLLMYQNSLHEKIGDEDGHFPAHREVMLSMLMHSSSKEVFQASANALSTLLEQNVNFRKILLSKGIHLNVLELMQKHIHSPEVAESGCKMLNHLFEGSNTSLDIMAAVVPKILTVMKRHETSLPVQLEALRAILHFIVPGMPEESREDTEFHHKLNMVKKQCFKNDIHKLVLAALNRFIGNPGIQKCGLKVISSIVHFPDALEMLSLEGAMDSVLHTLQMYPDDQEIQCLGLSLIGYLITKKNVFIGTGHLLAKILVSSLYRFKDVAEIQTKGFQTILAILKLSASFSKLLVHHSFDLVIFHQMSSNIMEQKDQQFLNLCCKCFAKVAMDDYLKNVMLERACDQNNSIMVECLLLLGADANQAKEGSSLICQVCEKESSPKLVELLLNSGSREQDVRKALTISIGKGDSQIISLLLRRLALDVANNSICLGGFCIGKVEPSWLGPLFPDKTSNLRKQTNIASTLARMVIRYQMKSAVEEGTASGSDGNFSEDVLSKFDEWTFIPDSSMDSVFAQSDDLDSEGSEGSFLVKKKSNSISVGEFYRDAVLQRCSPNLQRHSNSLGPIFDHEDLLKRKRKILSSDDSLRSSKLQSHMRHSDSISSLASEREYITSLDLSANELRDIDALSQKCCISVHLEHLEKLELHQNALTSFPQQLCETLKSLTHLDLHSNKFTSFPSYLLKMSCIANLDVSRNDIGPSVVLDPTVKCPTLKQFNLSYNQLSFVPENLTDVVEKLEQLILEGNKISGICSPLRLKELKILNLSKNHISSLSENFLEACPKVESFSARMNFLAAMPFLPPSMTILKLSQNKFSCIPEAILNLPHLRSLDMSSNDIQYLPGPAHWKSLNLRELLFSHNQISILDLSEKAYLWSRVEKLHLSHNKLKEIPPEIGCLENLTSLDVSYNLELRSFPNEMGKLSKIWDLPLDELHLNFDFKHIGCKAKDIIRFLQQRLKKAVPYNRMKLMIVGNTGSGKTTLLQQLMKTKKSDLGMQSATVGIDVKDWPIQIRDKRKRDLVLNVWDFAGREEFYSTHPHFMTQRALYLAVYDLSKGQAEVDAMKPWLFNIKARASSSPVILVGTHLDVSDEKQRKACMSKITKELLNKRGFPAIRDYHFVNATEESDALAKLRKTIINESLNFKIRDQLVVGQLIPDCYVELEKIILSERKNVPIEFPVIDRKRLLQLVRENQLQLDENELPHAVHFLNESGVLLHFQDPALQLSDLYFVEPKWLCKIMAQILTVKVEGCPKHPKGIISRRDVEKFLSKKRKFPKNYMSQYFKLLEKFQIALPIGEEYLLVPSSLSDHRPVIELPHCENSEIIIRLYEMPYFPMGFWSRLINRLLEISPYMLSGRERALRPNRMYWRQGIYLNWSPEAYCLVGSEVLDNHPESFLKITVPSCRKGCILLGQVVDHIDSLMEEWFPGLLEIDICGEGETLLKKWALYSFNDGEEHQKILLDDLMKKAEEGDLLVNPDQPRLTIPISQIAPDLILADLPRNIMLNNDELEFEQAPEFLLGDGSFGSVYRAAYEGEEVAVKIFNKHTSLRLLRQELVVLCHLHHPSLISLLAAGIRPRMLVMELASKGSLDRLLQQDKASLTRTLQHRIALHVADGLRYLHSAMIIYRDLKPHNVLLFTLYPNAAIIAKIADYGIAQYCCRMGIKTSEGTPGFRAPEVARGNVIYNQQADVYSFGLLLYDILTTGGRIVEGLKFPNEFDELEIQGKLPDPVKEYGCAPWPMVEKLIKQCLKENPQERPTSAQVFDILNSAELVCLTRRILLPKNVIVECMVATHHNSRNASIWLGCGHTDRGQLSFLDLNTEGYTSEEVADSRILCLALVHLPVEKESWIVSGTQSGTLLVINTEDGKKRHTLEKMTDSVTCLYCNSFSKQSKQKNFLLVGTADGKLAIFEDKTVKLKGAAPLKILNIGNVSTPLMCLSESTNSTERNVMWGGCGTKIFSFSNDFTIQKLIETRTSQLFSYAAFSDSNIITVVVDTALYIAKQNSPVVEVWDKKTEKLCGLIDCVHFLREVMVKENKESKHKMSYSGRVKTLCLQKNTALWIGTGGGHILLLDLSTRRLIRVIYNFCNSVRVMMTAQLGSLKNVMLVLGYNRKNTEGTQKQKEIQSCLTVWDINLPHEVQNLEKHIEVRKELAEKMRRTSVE
- Protocol Summary: LRRK2 Kinase Activity Assay (LanthaScreen TR-FRET), wild type
- Assay type: biochemical
- Applied Conditions: recombinant wild type LRRK2, 25 μM ATP, 400 nM LRRKtide, 60 min; class symbols
- Description: LRRK2 kinase activity was measured using a LanthaScreen™ Kinase Activity Assay from ThermoFisher Scientific. Recombinant wild type or G2019S-LRRK2 protein (Life Technologies, PR8604B or PV4881, respectively), was incubated with a fluorescein-labeled peptide substrate called LRRKtide that is based upon ezrin/radixin/moesin (ERM) (Life Technologies, PV4901) in the presence of ATP and serially diluted compound. […]
Observable: IC50

Enquiry: Quick one: IC50 of N#Cc1ccc2c(c1)CCC[C@@H]2Nc1ccc2[nH]nc(I)c2c1 (single isomer, unassigned) [Example 15, enantiomer 1] ?
Return: 100 to 1000 nM

Enquiry: Quick one: IC50 of N#Cc1ccc2c(c1)CC(F)(F)[C@@H]2Nc1ccc2[nH]nc(-c3cnco3)c2c1 (single isomer, unassigned) [Example 42, enantiomer 2] ?
Return: < 100 nM

Enquiry: Quick one: IC50 of Cc1n[nH]c2ccc(O[C@H]3CCCc4cc(C#N)ccc43)cc12 (single isomer, unassigned) [Example 19, enantiomer 1] ?
Return: 100 to 1000 nM

Enquiry: Quick one: IC50 of N#Cc1ccc2c(c1)CC[C@H]2Nc1ccc2[nH]nc(I)c2c1 (single isomer, unassigned) [Example 128, enantiomer 2] ?
Return: 100 to 1000 nM

Enquiry: Quick one: IC50 of N#Cc1ccc2c(c1F)CC[C@@H]2Oc1ccc2[nH]nc(-c3cnco3)c2c1 (single isomer, unassigned) [Example 24, enantiomer 1] ?
Return: < 100 nM

Enquiry: Quick one: IC50 of CN(C)C(=O)c1cccc(-c2n[nH]c3ccc(N[C@H]4CCCc5cc(C#N)ccc54)cc23)c1 (single isomer, unassigned) ?
Return: < 100 nM
